Source listed as patent US6004905A.

tested on: wheat seedlings; assay: Transpiration in wheat seedlings; type: in vivo, Triticum aestivum L. cv Katepwa; settings: Triticum aestivum, 3 h; methyl esters, intact wheat seedlings, three hours after application; read-out: concentration to reduce the transpiration rate to 50% (TR50)
Property Measured: pEC50
One number for each entry, as −log10 of the molar value.

### Prompt Please report the measured pEC50 for CC[C@@]1(C)CC(=O)C=C(C)[C@]1(O)/C=C/C(C)=C\C(=O)OC
### Response 4.00
